Reference for the values: patent EP1082127B1

measured.target: Ich-2 enzyme (Homo sapiens)
Sequence (P49662 81-270 limits assumed): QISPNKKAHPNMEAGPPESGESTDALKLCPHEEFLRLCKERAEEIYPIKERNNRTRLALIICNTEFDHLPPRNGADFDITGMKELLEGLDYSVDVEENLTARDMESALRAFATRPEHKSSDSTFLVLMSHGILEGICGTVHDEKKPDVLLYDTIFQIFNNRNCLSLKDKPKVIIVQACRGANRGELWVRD
Sequence (P49662 290-377 limits assumed): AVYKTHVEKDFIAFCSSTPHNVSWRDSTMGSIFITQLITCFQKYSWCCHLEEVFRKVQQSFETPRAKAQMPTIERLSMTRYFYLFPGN
parameter: log10 of IC50 (log10 of the value in µM)
In plain terms, each number is the log10 of measured IC50 in µM.

Take a look at these entries with their results.
1. CC(C)C(CC(=O)NCCn1nnc2ccccc21)C(=O)NC(C=O)CC(=O)O (centres unmarked)	1.03
2. CCOC1OC(=O)CC1NC(=O)C(CC(=O)NCCn1c(C)nc2ccccc21)C(C)C (centres unmarked)	2.56
3. CC(C)[C@H](CC(=O)NCCCc1ccccc1)C(=O)N[C@H](C=O)CC(=O)O	1.32
4. CCOC1OC(=O)CC1NC(=O)[C@@H](CC(=O)NCCn1cnc2cc(Cl)c(Cl)cc21)C(C)C (some centres unmarked)	1.27
5. CC(C)C(CC(=O)NCCc1ccccc1)C(=O)NC(CC(=O)O)C(=O)CNS(=O)(=O)CC12CCC(CC1=O)C2(C)C (centres unmarked)	0.67
6. CC(C)C(CC(=O)NCCc1ccccc1)C(=O)NC(CC(=O)O)C(=O)CSCCCc1ccccc1 (centres unmarked)	1.41
7. CC(C)C(CC(=O)NCCCc1ccc(O)cc1)C(=O)NC(CC(=O)O)C(=O)CNS(=O)(=O)CC12CCC(CC1=O)C2(C)C (centres unmarked)	0.67

In the following, a different compound is considered.
Challenge: Give Ich-2 enzyme (Homo sapiens) log10 of IC50 for CC(C)C(CC(=O)NCCc1nnn[nH]1)C(=O)NC(CC(=O)O)C(=O)CNS(=O)(=O)CC12CCC(CC1=O)C2(C)C (centres unmarked)
Response given: 0.04
